This collection of values is drawn from paper PMC12529337.

# Tested on: MCF-7 cells
# Test summary: MTT assay, anticancer activity, MCF-7
# Assay type: cell-based, human
# Particulars: Homo sapiens, MCF7, 72 h, read-out: IC50 MCF-7
pIC50: −log10 of the molar value.
Measurement name: pIC50

(A) C[C@H](c1ccccc1)n1cc[n+](C)c1 [(R)-P1]
(B) C[C@H](c1ccccc1)n1cc[n+]([C@H](C)c2ccccc2)c1 [(R)-P2]
(C) C[C@@H](c1ccccc1)n1cc[n+]([C@@H](C)c2ccccc2)c1 [(S)-P2]
From the records above, write out the order of decreasing pIC50. Arrange the labels as the request states and list them.
C, A, B

* * *

# System: MCF-10A cells
# Test summary: MTT assay, normal counterpart MCF-10A
# Type: cell-based, human
# Particulars: Homo sapiens, MCF-10A, 72 h, read-out: IC50 MCF-10A
Measurement name: IC50 (µM)
Only the number, expressed in µM, is required.

{"columns": ["Molecule", "Assayed system", "Reported result"],
 "data": [
  ["C[C@H](c1ccccc1)n1cc[n+](C)c1 [(R)-P1]", "MCF-10A cells", 40.3],
  ["C[C@@H](c1ccccc1)n1cc[n+]([C@@H](C)c2ccccc2)c1 [(S)-P2]", "MCF-10A cells", 28.8]
]}

For C[C@H](c1ccccc1)n1cc[n+]([C@H](C)c2ccccc2)c1 [(R)-P2] , what is its reported IC50?
28.2
